Tested on: TK-10 renal
EXPERIMENT_NOTES: NCI tumour cell line growth inhibition, 48 h
OBSERVABLE: TGI

Here are 2 compounds together with their reported answers.
INSERT INTO measurements (compound, measured_result) VALUES
  ('O=C(N/N=C/c1c(Cl)cccc1Cl)c1ccc(C(F)(F)F)nc1Nc1cccc(C(F)(F)F)c1', '> 91.4 µM'),
  ('c1ccc(-c2cnc(-c3ccc(-c4ncc(-c5ccccc5)o4)cc3)o2)cc1', '> 100 µM');

Each of the following entries comes with a recorded value; kindly state TGI for each.
1. COC(=O)C1(Cc2ccc3c(c2)CCC3)Cc2cc3c(cc2C1)CCC3
2. COc1ccc(/C=N/N2C(=O)c3c(N)c(C#N)c(-c4ccccc4)c(-c4ccccc4)c3C2=O)cc1
3. O=S1(=O)OCCOS(=O)(=O)C1Cl
4. Clc1ccc(Cl)c(SCCCN2CCNCC2)c1
5. C[C@H]1CCC/C=C/[C@@H]2C[C@H](O)C[C@H]2[C@H](O)[C@@H](SCC(O)CO)CC(=O)O1 (stereo not given in full)
6. Cc1ccc(S(=O)(=O)NC(=O)NNc2ccc(F)cc2)cc1
7. N#CC(C(=O)CCC(=O)Nc1cccc(C(F)(F)F)c1)c1ccc(Cl)cc1 (stereo not given)
8. COc1cc(CC(C)N)ccc1O (stereo not given)

-- reply
1: > 100 µM; 2: > 100 µM; 3: > 100 µM; 4: 31.4 µM; 5: > 100 µM; 6: > 100 µM; 7: > 100 µM; 8: > 100 µM
